Reference source for all entries: PubChem BioAssay (Tox21)

biological target: Aromatase (Homo sapiens); test: qHTS assay to identify aromatase inhibitors (AID 743083); conditions: MCF-7 aro ERE, testosterone-driven ERE luciferase, 24 h; series mostly up to 70.3 µM; note: % is set by controls: 0 for no effect and ±100 for the full control effect; nearly all actives have a fitted effect of over 55% in size
Records with an inconclusive call do not appear. Activity calls are given as the source filed them. Calls come from the whole dose curve; as a rule, active = well fitted inhibition curve with a large enough effect in the repeat runs; inconclusive = weak or mixed curves; inactive = no such curve, though single readings can be large or run the other way.
property-label: outcome

CO[Si](CCCNCCC[Si](OC)(OC)OC)(OC)OC: inactive
CC12CCC(CC1=O)C2(C)C (stereo not drawn): inactive
CCCCCCCCCCCCCCCCCCOCC(O)CO (stereo not drawn): inactive
Cc1cc(C)cc(OCC2CNC(=O)O2)c1 (stereo not drawn): inactive
N[C@@H](CS)C(=O)O: inactive
O=C(O)c1ccc[n+]([O-])c1: inactive
COc1ccc(COC=O)cc1: inactive
C=CC(=O)N1CCOCC1: inactive

* * *

assay: A CellTox Green Cytotoxicity Assay to monitor cytotoxicity in HEK293 cells - 32 hour (AID 1224881); conditions: CellTox Green fluorescence; series mostly up to 76.8 µM; note: % is set by controls: 0 for no effect and ±100 for the full control effect; nearly all actives have a fitted effect of over 40% in size
Results filed as inconclusive are left out. Calls of active or inactive are those of the source. Calls follow the shape of the dose curve; as a rule, active = well fitted activation curve with a large enough effect in the repeat runs; inconclusive = weak or mixed curves; inactive = flat fitted curve, though single readings scatter.
property-label: cytotoxicity increase

Cc1onc(-c2ccccc2)c1-c1ccc(S(N)(=O)=O)cc1: inactive
OCC(CO)(CO)COCC(CO)(CO)CO: inactive
CC(C)c1ccc2oc3nc(N)c(C(=O)O)cc3c(=O)c2c1: inactive
O=[N+]([O-])c1ccc(Oc2ccc([N+](=O)[O-])cc2)cc1: inactive
OCCN1C[C@H](O)[C@@H](O)[C@H](O)[C@H]1CO: inactive
CNc1ncnc2nc[nH]c12: inactive
C=C(C)[C@H]1CC=C(C)CC1: inactive
Cc1ccc(N)cc1[N+](=O)[O-]: inactive
COc1nc(C)nc(N)n1: inactive
C(=C(c1ccccc1)c1ccccc1)c1ccccc1: inactive
CC1=CC(C)C(C=O)C(C)C1 (centres undefined): inactive
NCCN1CCNC1=O: inactive
O=C1CC2(CCCC2)CC(=O)N1: inactive
CCCOc1ccccc1-c1nc2n[nH]nc2c(=O)[nH]1: inactive

* * *

assay: qHTS assay to identify small molecule antagonists of the estrogen related receptor (ERR) signaling pathway from Tox21 library (AID 1224848); conditions: ERR reporter cell line, luciferase antagonist mode, 18 h; series mostly up to 92.4 µM; note: nearly all actives have a fitted effect of over 50% in size
Records with an inconclusive call do not appear. The source made the active and inactive calls. The call rests on the fitted dose curve; in most records, active means well fitted inhibition curve with a large enough effect in the repeat runs; inconclusive means weak or mixed curves; inactive means no such curve, though single readings can be large or run the other way.
Possible outcomes: true (1) for active, false (0) for inactive

CCOC(=O)Cn1c(=O)sc2cccc(Cl)c21: false (0)
N#CC1(O)CCCCC1: false (0)
O=c1[nH]c2ccccc2c(=O)n1CCCl: false (0)
CCCCCCCCCCCl: false (0)
CCCCCCCCC=O: false (0)
NCCNC(=O)c1ccc(Cl)cn1: false (0)
CN(C)N=Nc1ccccc1: false (0)
CC(C)c1cccc(O)c1: false (0)
CCn1c(=O)c2c(nc(/C=C/c3ccc(OC)c(OC)c3)n2C)n(CC)c1=O: true (1)
C1COCCO1: false (0)
CC1(C)SC(C)(C)SC(C)(C)S1: false (0)
c1ccc(CCCc2ccccn2)cc1: false (0)
CCO[Si](CCCN=C=O)(OCC)OCC: false (0)
CN1[C@@H]2CC[C@H]1CC(NC(=O)n1c(=O)[nH]c3ccccc31)C2 (stereo not given in full): false (0)
CCC(C)(C)C1CCC(OC)CC1 (stereo not given): false (0)
COC[C@H](c1ccc(C(F)(F)F)cc1)N1CCN(C2(C)CCN(C(=O)c3c(C)ncnc3C)CC2)C[C@H]1C: false (0)
CC(C)c1cccc(C(C)C)c1N: false (0)
O=C(O)c1cccc(C(=O)O)n1: false (0)
CC(C)CCCC(C)NCCC(C)C (stereo not given): false (0)
CC(C)(C)C(=O)/C=C/c1ccc(Cl)cc1: false (0)
COC(=O)C1=C(C)NC(C)=C(C(=O)OCC(C)=O)C1c1ccccc1[N+](=O)[O-] (stereo not given): false (0)
CC(C)(O)c1ccccc1: false (0)
COc1ccc2cc(C=O)ccc2c1: false (0)
Cc1ncc(CSSCc2cnc(C)c(O)c2CO)c(CO)c1O: false (0)
O=S(=O)(O)c1ccccc1O: false (0)
CNc1ncnc2nc[nH]c12: false (0)
C=CC(=O)N1CCOCC1: false (0)
c1ccc2cnncc2c1: false (0)
CCC(C(=O)NC(N)=O)c1ccccc1 (stereo not given): false (0)
CC1CCN(CCCC(=O)c2ccc(F)cc2)CC1: false (0)

* * *

assay: qHTS assay to identify small molecule agonists of the AP-1 signaling pathway - cell viability counter screen (AID 1159525); conditions: ME-180 AP-1-bla cells viability, ATP luminescence, 5 h; series mostly up to 76.8 µM; note: nearly all actives have a fitted effect of over 55% in size
Records with an inconclusive call do not appear. Activity calls are given as the source filed them. The call rests on the fitted dose curve.
property-label: viability change, negative = cytotoxic

NCCN1CCNC1=O: inactive
C=C(C)C(=O)NCCCN(C)C: inactive
CCCCCOC(=O)Nc1nc(=O)n([C@@H]2O[C@H](C)[C@@H](O)[C@H]2O)cc1F: inactive
CC(=O)O[C@H](CC(=O)[O-])C[N+](C)(C)C: inactive
CCCC(C)CO (stereo unspecified): inactive
COC(=O)[C@H]1[C@H]2C[C@@H]3c4[nH]c5cc(OC)ccc5c4CCN3C[C@H]2C[C@@H](OC(=O)COc2ccc(OC)cc2)[C@@H]1OC: inactive

* * *

assay: qHTS assay to identify small molecule agonists of the AP-1 signaling pathway (AID 1159526); conditions: ME-180 (cervical carcinoma) AP-1-bla reporter, beta-lactamase FRET ratio, 5 h; series mostly up to 76.8 µM; note: % is set by controls: 0 for no effect and ±100 for the full control effect
Inconclusive results are not listed. The source made the active and inactive calls. The call rests on the fitted dose curve.
property-label: activation

CNC(=O)c1c(I)c(NC(=O)CCCCC(=O)Nc2c(I)c(C(=O)O)c(I)c(C(=O)NC)c2I)c(I)c(C(=O)O)c1I: inactive
CCOC(=O)[C@H](CCc1ccccc1)N[C@@H](C)C(=O)N1CCC[C@H]1C(=O)O: inactive
NC(=O)Nc1nc2ccccc2[nH]1: inactive
C=C(C)C(=O)OCCC(C)OC(=O)C(=C)C (stereo unspecified): inactive
O=c1[nH]c2ccccc2c(=O)n1CCCl: inactive
Cc1nccn1CC1CCc2c(c3ccccc3n2C)C1=O (stereo unspecified): inactive
c1ccc2cnncc2c1: inactive
OC1OC[C@@H](O)[C@H](O)[C@H]1O (stereo partly specified): inactive
CC(C)(C)OC(=O)N1C[C@@H](F)C[C@H]1C(=O)O: inactive
OCCCCCCO: inactive
CC1(C)OC(=O)Nc2ccc(Br)cc21: inactive
O=Cc1ccccc1[N+](=O)[O-]: inactive
[O-][N+](=Nc1ccccc1)c1ccccc1: inactive
CCCC=O: inactive
NCC[C@H](O)C(=O)N[C@@H]1C[C@H](N)[C@@H](O[C@H]2O[C@H](CN)[C@@H](O)[C@H](O)[C@H]2O)[C@H](O)[C@H]1O[C@H]1O[C@H](CO)[C@@H](O)[C@H](N)[C@H]1O: 12.3% [at 0.29 µM] (inactive)
CCC(C)OC(=O)N1CCCCC1CCO (stereo unspecified): inactive
CCN(CC)S(=O)(=O)c1ccc(C(=O)O)cc1: inactive
N#CCN(CC#N)CCN(CC#N)CC#N: inactive
CCCCCCCCCCCCCCCCCC(=O)OCCCCCCCCCCCCCC(C)C: inactive
NCCNC(=O)c1ccc(Cl)cn1: inactive
CCCCCC[C@@H](CCC)C(=O)O: inactive
CCC(=O)Nc1cccc(N)c1: inactive
CCCCCCOC(=O)c1ccccc1O: inactive
CCCC(C)CO (stereo unspecified): inactive
CC(C)COC(=O)c1ccccc1O: inactive
COC[C@H](c1ccc(C(F)(F)F)cc1)N1CCN(C2(C)CCN(C(=O)c3c(C)ncnc3C)CC2)C[C@H]1C: inactive

* * *

molecular target: Estrogen receptor beta (Homo sapiens); test: qHTS assay to identify small molecule antagonists of the estrogen receptor beta (ER-beta) signaling pathway (AID 1259378); conditions: ER-beta-UAS-bla HEK293T, beta-lactamase FRET ratio, 16 h; series mostly up to 92.4 µM
Inconclusive results are not listed. Calls of active or inactive are those of the source. Calls come from the whole dose curve; as a rule, active = well fitted inhibition curve with a large enough effect in the signal ratio in the repeat runs (not every such curve was filed as active); inconclusive = weak or mixed curves, or effect the other way; inactive = no such curve, though single readings can be large or run the other way; the % refers to the signal ratio.
Classes used: TRUE (active), FALSE (inactive)

O=S(=O)(c1cccc2cnccc12)N1CCCNCC1: FALSE
CCCCCCC(CCCCCCCCCCC(=O)OCC(COC(C)=O)OC(C)=O)OC(C)=O (configuration not stated): FALSE
CC(C)(O)c1ccccc1: FALSE
CC12CCC(CC1=O)C2(C)C (configuration not stated): FALSE
Cc1ccccc1Br: FALSE
CN1[C@@H]2CC[C@H]1CC(NC(=O)n1c(=O)[nH]c3ccccc31)C2 (some centres not stated): FALSE
OC[C@H]1O[C@@H]2O[C@H]3[C@H](O)[C@@H](O)[C@@H](O[C@H]4[C@H](O)[C@@H](O)[C@@H](O[C@H]5[C@H](O)[C@@H](O)[C@@H](O[C@H]6[C@H](O)[C@@H](O)[C@@H](O[C@H]7[C@H](O)[C@@H](O)[C@@H](O[C@H]8[C@H](O)[C@@H](O)[C@@H](O[C@H]9[C@H](O)[C@@H](O)[C@@H](O[C@H]1[C@H](O)[C@H]2O)O[C@@H]9CO)O[C@@H]8CO)O[C@@H]7CO)O[C@@H]6CO)O[C@@H]5CO)O[C@@H]4CO)O[C@@H]3CO: FALSE
CC(=O)OC(C)(C)C: FALSE
CCCCCOC(=O)Nc1nc(=O)n([C@@H]2O[C@H](C)[C@@H](O)[C@H]2O)cc1F: FALSE
CCC(=O)Nc1cccc(N)c1: FALSE
Cc1cc(C)c(NC(=O)CN(CC(=O)O)CC(=O)O)c(C)c1Br: FALSE
CN(C)C(=O)Nc1ccccc1: FALSE
O=S(=O)(O)c1ccccc1O: FALSE
C/C=C1\C(=O)C[C@H]2[C@@H]3CCC4=CC(=O)CC[C@]4(C)[C@H]3CC[C@]12C: TRUE
NS(=O)(=O)c1cc(C2(O)NC(=O)c3ccccc32)ccc1Cl (configuration not stated): FALSE
O=C1CC2(CCCC2)CC(=O)N1: FALSE
NC(N)=NS(=O)(=O)c1ccc(N)cc1: FALSE
NC(=O)Nc1nc2ccccc2[nH]1: FALSE
c1ccc(SCCSc2ccccc2)cc1: FALSE
CCN(CC)S(=O)(=O)c1ccc(C(=O)O)cc1: FALSE
COc1ccc(COC=O)cc1: FALSE
c1cc(CN2CCCCC2)cc(OCCCNc2nc3ccccc3s2)c1: TRUE
